These data points were gathered from patent US12473278B2.

target: FLT3 (Homo sapiens (Human), UniProt P36888); assay: Measurement of FLT3 enzyme activity; assay type: biochemical; conditions: FLT3 enzyme activity; read-out: FLT3 (IC50)
Sequence (P36888 27-993): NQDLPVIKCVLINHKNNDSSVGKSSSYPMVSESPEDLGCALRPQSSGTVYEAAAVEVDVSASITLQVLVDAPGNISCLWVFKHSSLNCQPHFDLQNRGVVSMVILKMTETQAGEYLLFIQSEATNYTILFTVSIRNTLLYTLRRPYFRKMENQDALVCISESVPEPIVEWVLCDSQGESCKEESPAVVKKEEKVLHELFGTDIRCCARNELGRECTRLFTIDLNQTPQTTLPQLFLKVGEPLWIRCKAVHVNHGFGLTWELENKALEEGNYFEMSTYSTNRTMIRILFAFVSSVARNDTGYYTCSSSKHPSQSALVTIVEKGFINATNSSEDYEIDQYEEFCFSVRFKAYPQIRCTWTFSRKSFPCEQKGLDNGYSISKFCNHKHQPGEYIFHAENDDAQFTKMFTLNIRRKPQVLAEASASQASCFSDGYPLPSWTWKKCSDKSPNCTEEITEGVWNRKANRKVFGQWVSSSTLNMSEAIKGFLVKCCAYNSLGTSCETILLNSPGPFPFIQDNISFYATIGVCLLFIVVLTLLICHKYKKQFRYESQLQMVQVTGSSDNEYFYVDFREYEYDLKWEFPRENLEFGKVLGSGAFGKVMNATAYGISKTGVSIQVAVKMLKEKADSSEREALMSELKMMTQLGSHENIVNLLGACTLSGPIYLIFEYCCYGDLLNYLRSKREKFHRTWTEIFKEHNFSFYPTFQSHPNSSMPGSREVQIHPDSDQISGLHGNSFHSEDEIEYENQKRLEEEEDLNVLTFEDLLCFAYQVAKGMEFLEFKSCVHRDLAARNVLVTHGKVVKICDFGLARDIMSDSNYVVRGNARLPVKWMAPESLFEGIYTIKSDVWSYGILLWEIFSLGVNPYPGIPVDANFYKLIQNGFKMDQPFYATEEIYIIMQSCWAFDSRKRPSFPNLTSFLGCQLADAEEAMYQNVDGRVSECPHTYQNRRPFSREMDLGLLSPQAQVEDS
Measured IC50 by item

Past entries and their recorded results:
{"SMILES ENTRY": "Cc1cn(-c2cc(-c3nc4cc(NC(=O)c5cnoc5C)ccc4[nH]3)cc(C(F)(F)F)c2)cn1", "RESULT": "< 3 µM"}
{"SMILES ENTRY": "Cc1oncc1C(=O)Nc1ccc2[nH]c(-c3ccc(N4CCN(C)CC4)c(C(F)(F)F)c3)nc2c1", "RESULT": "> 10 µM"}
{"SMILES ENTRY": "CCN1CCN(Cc2ccc(-c3nc4cc(NC(=O)c5cnoc5C)ccc4[nH]3)cc2C(F)(F)F)CC1", "RESULT": "3 to 10 µM"}

Req: Name the recorded IC50 for `Cc1oncc1C(=O)Nc1ccc2[nH]c(-c3cc(N4CCN(C)CC4)cc(C(F)(F)F)c3)nc2c1` .
Resp: < 3 µM

Req: Query `Cc1oncc1C(=O)Nc1ccc2[nH]c(-c3cc(OC4CCN(C)CC4)cc(C(F)(F)F)c3)nc2c1` next
Resp: 3 to 10 µM

Req: Okay, and `Cc1oncc1C(=O)Nc1ccc2[nH]c(-c3ccc(Cl)c(C(F)(F)F)c3)nc2c1` ?
Resp: 3 to 10 µM

Req: Follow-up item: `Cc1cn(-c2cc(-c3nc4c(NC(=O)c5cnoc5C)cccc4[nH]3)cc(C(F)(F)F)c2)cn1`
Resp: 3 to 10 µM

Req: Entry to check: `Cc1oncc1C(=O)Nc1cccc2[nH]c(-c3ccc(N4CCOCC4)c(C(F)(F)F)c3)nc12`
Resp: > 10 µM
